# Target or test system: UniProtKB Q96EB6
# Sequence (whole entry): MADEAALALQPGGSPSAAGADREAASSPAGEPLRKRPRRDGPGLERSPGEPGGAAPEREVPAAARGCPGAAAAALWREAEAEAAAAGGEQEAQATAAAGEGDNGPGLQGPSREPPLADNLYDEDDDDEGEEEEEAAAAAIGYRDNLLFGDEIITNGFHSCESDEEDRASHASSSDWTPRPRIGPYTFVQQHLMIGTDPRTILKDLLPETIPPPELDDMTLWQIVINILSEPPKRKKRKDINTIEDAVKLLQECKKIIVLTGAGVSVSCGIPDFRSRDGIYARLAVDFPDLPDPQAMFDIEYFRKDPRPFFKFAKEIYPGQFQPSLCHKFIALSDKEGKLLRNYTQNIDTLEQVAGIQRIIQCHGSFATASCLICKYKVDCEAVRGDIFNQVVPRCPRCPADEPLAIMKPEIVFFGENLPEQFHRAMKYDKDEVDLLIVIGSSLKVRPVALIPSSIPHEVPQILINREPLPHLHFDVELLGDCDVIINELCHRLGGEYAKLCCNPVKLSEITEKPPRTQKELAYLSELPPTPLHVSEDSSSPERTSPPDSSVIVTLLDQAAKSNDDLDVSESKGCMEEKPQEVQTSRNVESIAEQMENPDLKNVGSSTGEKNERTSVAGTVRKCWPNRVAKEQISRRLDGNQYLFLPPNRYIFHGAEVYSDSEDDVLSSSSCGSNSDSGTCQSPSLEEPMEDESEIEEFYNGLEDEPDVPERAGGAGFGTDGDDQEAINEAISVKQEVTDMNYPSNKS
# Protocol summary: Inhibition of recombinant GST-SIRT1 (unknown origin) using KI177 as substrate at 50 uM after 45 mins by fluorescence assay
Label 1 (yes) when inhibition is at or above 6%; anything below gets 0 (no).

// query Quick check, inhibition >= 6%? "CN1c2ccccc2C(=O)N2CCc3c([nH]c4ccccc34)[C@@H]21"
// result 0 (no)

// query Another molecule to check: "CNC(=O)[C@@H]1Cc2c([nH]c3ccccc23)[C@H]2N(C)c3ccccc3C(=O)N12"
// result 1 (yes)
